# Test system: NFκB
# PROCEDURE TEXT: NFκB inhibition assay (2 h), NFκB-dependent nanoluc luciferase reporter
# Type: cell-based, human
# REPORTED CONDITIONS: Homo sapiens; NFκB-MDA-MB-231-nanoluc cells, 2-h treatment, mean ± SD; read-out: NFκB Inhibition 2 h IC50
READOUT: IC50

Below, each entry is followed by its recorded IC50 result.
COc1ccc2c(c1)c1cc(O)c(OC)cc1c1c[n+]3c(cc21)CCC3 [Compound (6), anhydrodehydrotylophorinidine]: > 1000 nM
COc1ccc2c(c1)c1cc(OC)c(OC)cc1c1c[n+]3c(cc21)CCC3: > 1000 nM
COc1ccc2c3c(c4cc(OC)c(O)cc4c2c1)CN1CCC[C@H]1[C@H]3O: 212 nM

Give reported IC50 value for CC(=O)O[C@H]1C(=O)[C@@]2(C)[C@H]([C@H](OC(=O)c3ccccc3)[C@]3(O)C[C@H](OC(=O)[C@H](O)[C@@H](NC(=O)c4ccccc4)c4ccccc4)C(C)=C1C3(C)C)[C@]1(OC(C)=O)CO[C@@H]1C[C@@H]2O [Paclitaxel, paclitaxel, reference compound]
> 1000 nM

Give reported IC50 value for COc1cc2c3c(c4ccc(O)cc4c2cc1OC)[C@H](O)[C@@H]1CCCN1C3
285 nM

* * *

# TGT: NFκB
# PROCEDURE TEXT: NFκB inhibition assay (2 h), NFκB-dependent nanoluc luciferase reporter
# Format: cell-based, human
# REPORTED CONDITIONS: NFκB-MDA-MB-231-nanoluc cells, 2-h treatment, mean ± SD; read-out: NFκB Inhibition 2 h IC50
READOUT: pIC50
Keep it numeric: pIC50 is minus log10 of the concentration in mol/L.

Give reported pIC50 value for CC(C)(C)c1ccc(S(=O)(=O)/C=C/C#N)cc1 [BAY 11-7085, reference compound]
5.26

* * *

# Tested on: 3D co-culture spheroids of MDA-MB-231 and primary murine CAFs
# PROCEDURE TEXT: 3D cell viability (ATP content) in TNBC co-culture spheroids
# Assay type: cell-based, human MDA-MB-231
# REPORTED CONDITIONS: Mus musculus, MDA-MB-231; 3D co-culture spheroids, 72 h treatment, mean ± SD (n = 3); read-out: Reduction of Cell Viability 72 h IC50
READOUT: IC50 (nM)
Lab book: enter the figure in nM, no units written.

COc1cc2c3c(c4ccc(O)cc4c2cc1OC)[C@H](O)[C@@H]1CCCN1C3: 477
COc1ccc2c3c(c4cc(OC)c(O)cc4c2c1)CN1CCC[C@H]1[C@H]3O: 442

Proceed to the following item.
Give reported IC50 value for CC(=O)O[C@H]1C(=O)[C@@]2(C)[C@H]([C@H](OC(=O)c3ccccc3)[C@]3(O)C[C@H](OC(=O)[C@H](O)[C@@H](NC(=O)c4ccccc4)c4ccccc4)C(C)=C1C3(C)C)[C@]1(OC(C)=O)CO[C@@H]1C[C@@H]2O [Paclitaxel, paclitaxel, reference compound]
43

* * *

# Tested on: MDA-MB-231
# PROCEDURE TEXT: 2D cell viability (PrestoBlue resazurin) in MDA-MB-231
# Assay type: cell-based, human
# REPORTED CONDITIONS: read-out: Reduction of Cell Viability 24 h IC50; MDA-MB-231 2D monolayer, 24 h post-treatment, mean ± SD
READOUT: IC50 (nM)
Lab book: enter the figure in nM, no units written.

COc1ccc2c3c(c4cc(OC)c(OC)cc4c2c1)CN1CCCC1C3O (centres unmarked) [Compound (1), O-methyltylophorinidine]: 13.6

Proceed to the following item.
Give reported IC50 value for COc1ccc2c3c(c4cc(OC)c(OC)cc4c2c1)CN1CCCC1C3O (centres unmarked) [Compound (1s), O-methyltylophorinidine]
4.2

* * *

# Test system: CAFs
# PROCEDURE TEXT: 2D cell viability in CAFs
# Assay type: cell-based, murine
# REPORTED CONDITIONS: Mus musculus; CAFs, 24 h, mean ± SD (n = 3); read-out: Reduction of Cell Viability 24 h IC50 in CAFs
Measured pIC50 accompanies every entry in the list below.
Keep it numeric: pIC50 is minus log10 of the concentration in mol/L.

COc1ccc2c3c(c4cc(OC)c(O)cc4c2c1)CN1CCC[C@H]1[C@H]3O [Compound (2), tylophorinidine]: 7.71

Proceed to the following item.
Give reported pIC50 value for COc1cc2c3c(c4ccc(O)cc4c2cc1OC)[C@H](O)[C@@H]1CCCN1C3 [Compound (3), tylophoridicine E]
7.57
